Source listed as ChEMBL document CHEMBL3872287.

Molecular target: aldehyde oxidase (Homo sapiens)
Sequence (Q06278 whole entry): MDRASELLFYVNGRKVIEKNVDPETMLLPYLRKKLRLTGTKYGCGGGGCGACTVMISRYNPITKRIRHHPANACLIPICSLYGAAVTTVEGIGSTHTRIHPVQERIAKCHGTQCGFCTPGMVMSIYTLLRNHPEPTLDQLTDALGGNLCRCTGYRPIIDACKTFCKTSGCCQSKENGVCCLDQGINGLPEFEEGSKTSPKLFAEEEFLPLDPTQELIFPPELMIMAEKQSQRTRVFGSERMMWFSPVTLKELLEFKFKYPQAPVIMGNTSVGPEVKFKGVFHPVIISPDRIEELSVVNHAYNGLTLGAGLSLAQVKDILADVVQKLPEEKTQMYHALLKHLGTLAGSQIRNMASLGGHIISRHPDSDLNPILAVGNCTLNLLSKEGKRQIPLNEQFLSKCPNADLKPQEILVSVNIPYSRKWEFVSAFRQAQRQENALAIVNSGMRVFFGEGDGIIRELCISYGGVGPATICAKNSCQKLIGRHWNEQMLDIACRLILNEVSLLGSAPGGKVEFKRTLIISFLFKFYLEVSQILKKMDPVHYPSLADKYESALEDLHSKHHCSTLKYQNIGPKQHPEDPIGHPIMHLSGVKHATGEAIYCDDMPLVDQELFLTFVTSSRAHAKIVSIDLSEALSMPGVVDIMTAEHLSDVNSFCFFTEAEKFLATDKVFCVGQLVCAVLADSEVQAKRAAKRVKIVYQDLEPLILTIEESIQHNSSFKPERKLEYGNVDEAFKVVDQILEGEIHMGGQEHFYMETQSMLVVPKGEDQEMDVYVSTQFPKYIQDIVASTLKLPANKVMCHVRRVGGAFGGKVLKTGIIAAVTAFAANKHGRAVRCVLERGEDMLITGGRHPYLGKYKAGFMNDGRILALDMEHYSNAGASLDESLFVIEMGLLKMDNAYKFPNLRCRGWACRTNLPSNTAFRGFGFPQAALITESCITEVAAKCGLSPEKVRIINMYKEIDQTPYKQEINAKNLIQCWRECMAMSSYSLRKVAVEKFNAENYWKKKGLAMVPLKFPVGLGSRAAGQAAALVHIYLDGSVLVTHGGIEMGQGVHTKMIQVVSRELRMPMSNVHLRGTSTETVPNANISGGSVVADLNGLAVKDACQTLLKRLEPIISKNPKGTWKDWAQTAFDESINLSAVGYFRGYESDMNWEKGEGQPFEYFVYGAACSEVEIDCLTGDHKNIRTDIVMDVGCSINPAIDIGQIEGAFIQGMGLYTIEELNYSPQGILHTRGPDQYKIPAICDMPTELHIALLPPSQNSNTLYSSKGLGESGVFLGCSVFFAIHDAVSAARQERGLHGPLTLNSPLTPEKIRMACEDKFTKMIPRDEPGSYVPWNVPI
Test: Drug metabolism in human liver cytosol assessed as aldehyde oxidase-mediated metabolism by measuring amount of parent compound remaining measured over 4 hrs in absence of aldehyde oxidase inhibitor raloxifene by MS/MS analysis
Format: ADME
Conditions: read-out: Stability

molecule	remaining at 4 h [%]
O=C(N[C@@H]1CCC[C@H](Nc2nc(-c3c(CO)[nH]c4ncc(F)cc34)ncc2F)C1)N1CCCC1	100
O=C(N[C@@H]1CCC[C@H](Nc2nc(-c3n[nH]c4ncc(F)cc34)ncc2F)C1)N1CCCC1	1
O=C(N[C@@H]1CCC[C@H](Nc2nc(-c3n[nH]c4ncc(F)cc34)ncc2F)C1)N1CC[C@@H](F)C1	0.6
O=C(N[C@@H]1CCC[C@H](Nc2nc(-c3c(CO)[nH]c4ncc(F)cc34)ncc2F)C1)N1CC[C@@H](F)C1	105
O=C(N[C@@H]1CCC[C@H](Nc2nc(-c3n[nH]c4ncc(F)cc34)ncc2F)C1)c1ccsc1	0
Cc1[nH]c2ncc(F)cc2c1-c1ncc(F)c(N[C@H]2CCC[C@@H](NC(=O)N3CCCC3)C2)n1	103
O=C(N[C@@H]1CCC[C@H](Nc2nc(-c3c[nH]c4ncc(F)cc34)ncc2F)C1)N1CCCC1	4
Cn1cnc(C(=O)N[C@@H]2CCC[C@H](Nc3nc(-c4n[nH]c5ncc(F)cc45)ncc3F)C2)c1	40
O=C(N[C@@H]1CCC[C@H](Nc2nc(-c3c[nH]c4ncc(F)cc34)ncc2F)C1)N1CCOCC1	7
CC(O)c1[nH]c2ncc(F)cc2c1-c1ncc(F)c(N[C@H]2CCC[C@@H](NC(=O)N3CCCC3)C2)n1 (stereo in doubt; 21b)	99
